Target: human Cot catalytic domain (30-397 amino acids) (Homo sapiens, UniProt P41279)
Construct: Purified recombinant human Cot catalytic domain (30-397 amino acids) was purchased from Cama Biosciences; purchased Cama Biosciences (so in the source)
Sequence (P41279 30-397): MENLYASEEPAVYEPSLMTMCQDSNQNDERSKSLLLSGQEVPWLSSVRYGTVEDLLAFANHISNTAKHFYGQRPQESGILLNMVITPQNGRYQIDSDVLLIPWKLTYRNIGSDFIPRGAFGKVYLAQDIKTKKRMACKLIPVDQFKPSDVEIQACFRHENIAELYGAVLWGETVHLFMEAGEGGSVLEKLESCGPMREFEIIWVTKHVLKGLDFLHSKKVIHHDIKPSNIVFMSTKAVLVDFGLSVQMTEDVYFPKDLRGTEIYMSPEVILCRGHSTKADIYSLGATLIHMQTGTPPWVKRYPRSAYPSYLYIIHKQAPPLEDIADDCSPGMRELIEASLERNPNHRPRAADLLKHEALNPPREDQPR
Assay: High Throughput Cot Biochemical Assay (KinEASE TR-FRET)
Conditions: Cot KinEASE TR-FRET (HTRF) biochemical assay, 400 μM ATP; read-out: IC50 HTRF
Task for the reader: assign each of the following compounds its reported pIC50.
Quick note: pIC50 values are minus log10 of concentrations in mol/L.

Look at this compound and give its reported pIC50. `[2H][C@](Nc1cc(-c2cncnc2)c2ncc(C#N)c(N[C@H](CC)c3ccccc3)c2c1)(c1ccc(F)cc1)c1cn(C2CC2)nn1`
7.70

Look at this compound and give its reported pIC50. `CC(C)(C)CNc1c(C#N)cnc2c(Cl)cc(N[C@H](c3cn(C4CC4)nn3)c3ccccc3-c3ccccc3)cc12`
6.01

Look at this compound and give its reported pIC50. [2H][C@](Nc1cc(Cl)c2ncc(C#N)c(NC3CCCCC3C)c2c1)(c1ccc(F)cc1)c1cn(C2CC2)nn1 (some centres unmarked)
6.80

Look at this compound and give its reported pIC50. `[2H][C@](Nc1cc2c(NCC(C)(C)C)c(C#N)cnc2c(C)c1F)(c1ccc(F)cc1)c1cn(C2CC2)nn1`
5.43

Look at this compound and give its reported pIC50. `[2H][C@](Nc1cc(Cl)c2ncc(C#N)c(Nc3cccc(Cl)c3Cl)c2c1)(c1ccc(F)cc1)c1cn(C2CC2)nn1`
7.28

###

Task for the reader: assign each of the following compounds its reported IC50.
Biological target: human Cot catalytic domain (30-397 amino acids) (Homo sapiens, UniProt P41279)
Construct: Purified recombinant human Cot catalytic domain (30-397 amino acids) was purchased from Cama Biosciences; purchased Cama Biosciences (so in the source)
Assay: High Throughput Cot Biochemical Assay (KinEASE TR-FRET)
Settings: Cot biochemical HTRF (KinEASE TR-FRET) assay; read-out: IC50 HTRF
Quick note: give the figure in nM, leave out the unit.

Look at this compound and give its reported IC50. N#Cc1cnc2c(Cl)cc(NC(c3ccc(Cl)cc3)c3cn(C4CNC4)nn3)cc2c1Nc1ccc(F)c(Cl)c1 (centres unmarked) [Example 872]
41

Look at this compound and give its reported IC50. N#Cc1cnc2c(Cl)cc(N[C@@H](c3ccccc3)c3cn(CC4(N5CCCC5)COC4)nn3)cc2c1Nc1ccc(F)c(Cl)c1 [Example 544]
94

Look at this compound and give its reported IC50. Cn1cc(C(Nc2cc(Cl)c3ncc(C#N)c(Nc4ccc(F)c(Cl)c4)c3c2)c2ccc(F)cc2)nn1 (centres unmarked) [Example 882]
20

Look at this compound and give its reported IC50. N#Cc1cnc2c(Cl)cc(N[C@@H](c3ccccc3)c3cn([C@@H]4CCNC[C@H]4F)nn3)cc2c1Nc1ccc(F)c(Cl)c1 [Example 744]
13

Look at this compound and give its reported IC50. CC(C)(C)N1CCC(n2cc([C@@H](Nc3cc(Cl)c4ncc(C#N)c(Nc5ccc(F)cc5C#N)c4c3)c3ccccc3)nn2)CC1 [Example 471]
333

Look at this compound and give its reported IC50. N#Cc1cnc2c(Cl)cc(N[C@@H](c3ccc(F)cc3)c3cn(-c4ccccc4)nn3)cc2c1Nc1cnc(F)c(F)c1 [Example 408]
41

Look at this compound and give its reported IC50. N#Cc1cnc2c(Cl)cc(N[C@@H](c3ccccc3)c3cn([C@@H]4CCN(C5COC5)C[C@H]4O)nn3)cc2c1Nc1cccc(Cl)c1 [Example 517]
10

Look at this compound and give its reported IC50. CC[C@@H](Nc1c(C#N)cnc2c(Cl)cc(N[C@@H](c3cccc(C(=O)N(C)C)c3)c3cn(C(C)C)nn3)cc12)c1ccccc1 [Example 599]
3

Look at this compound and give its reported IC50. CC1(Nc2c(C#N)cnc3c(Cl)cc(N[C@@H](c4ccc(Cl)cc4)c4cn(C5CCN(C(C)(C)C)CC5)nn4)cc23)CCCCC1 [Example 663]
72

Look at this compound and give its reported IC50. N#Cc1cnc2c(Cl)cc(N[C@@H](c3cccc(-c4ncco4)c3)c3c[nH]nn3)cc2c1Nc1cnc(F)c(F)c1 [Example 498]
8

Look at this compound and give its reported IC50. CC(C)(C)N1CCC(n2cc([C@@H](Nc3cc(Cl)c4ncc(C#N)c(Nc5c(F)cc(F)cc5F)c4c3)c3ccccc3)nn2)CC1 [Example 473]
59

Look at this compound and give its reported IC50. CC[C@@H](Nc1c(C#N)cnc2c(Cl)cc(N[C@H](c3cn(C4CC4)nn3)c3ccccc3F)cc12)c1ccccc1 [Example 429]
9

Look at this compound and give its reported IC50. CC(C)(C)N1CCC(n2cc([C@@H](Nc3cc(Cl)c4ncc(C#N)c(Nc5ccc(F)c(Cl)c5)c4c3)c3cccc(-c4nccs4)c3)nn2)CC1 [Example 632]
3

Look at this compound and give its reported IC50. CC(C)(C)N1CCC(n2cc([C@@H](Nc3cc(Cl)c4ncc(C#N)c(Nc5ccc(F)c(Cl)c5)c4c3)c3ccccc3CO)nn2)CC1 [Example 722]
4

Look at this compound and give its reported IC50. CN(C)C(=O)CN1CCC(n2cc([C@@H](Nc3cc(Cl)c4ncc(C#N)c(Nc5ccc(F)c(Cl)c5)c4c3)c3ccc(F)cc3)nn2)CC1 [Example 824]
58

Look at this compound and give its reported IC50. CC(C)(C)N1CCC(n2cc([C@@H](Nc3cc(Cl)c4ncc(C#N)c(Nc5cc(Cl)ccc5F)c4c3)c3ccc(Cl)cc3)nn2)CC1 [Example 652]
61

Look at this compound and give its reported IC50. N#Cc1cnc2c(F)cc(N[C@@H](c3ccccc3)c3cn(C4CCNCC4)nn3)cc2c1Nc1ccc(F)c(Cl)c1 [Example 794]
4

Look at this compound and give its reported IC50. N#Cc1cnc2c(Cl)cc(N[C@@H](c3cccc(CN4CCCC4)c3)c3c[nH]nn3)cc2c1Nc1ccc(F)c(Cl)c1 [Example 575]
10

Look at this compound and give its reported IC50. CC[C@@H](Nc1c(C#N)cnc2c(Cl)cc(N[C@@H](c3ccccc3)c3c[nH]nn3)cc12)c1ccccc1 [Example 627]
16
